# Tested on: parental HEK cells
# EXPERIMENT: HEK parental Agonist Counterscreen Assay (non-transfected cells)
# Format: cell-based
# PROTOCOL_CONDITIONS: HEK Agonist Activity section
ENDPOINT: Lipophilic Efficiency (logP)

Illustrative cases are given below, each with its answer.
{"COMPOUND": "Cc1ccccc1SCC(=O)NNC(=O)c1ccc(Br)s1 [SR-01000069352]", "ASSAYED_SYSTEM": "parental HEK cells", "ENDPOINT": "Lipophilic Efficiency (logP)", "REPORTED": 1.25}
{"COMPOUND": "O=C(CN1CCN(Cc2ccccc2Cl)C1=O)NC1CCCCCCC1 [SR-01000125462]", "ASSAYED_SYSTEM": "parental HEK cells", "ENDPOINT": "Lipophilic Efficiency (logP)", "REPORTED": 1.58}
{"COMPOUND": "O=C(CN1CCN(C/C=C/c2ccccc2)CC1)NCCCc1ccccc1 [SR-01000062290]", "ASSAYED_SYSTEM": "parental HEK cells", "ENDPOINT": "Lipophilic Efficiency (logP)", "REPORTED": 1.10}
{"COMPOUND": "O=c1nc(SCc2ccccc2F)c2c([nH]1)CCC2 [SR-01000914970]", "ASSAYED_SYSTEM": "parental HEK cells", "ENDPOINT": "Lipophilic Efficiency (logP)", "REPORTED": 2.02}
{"COMPOUND": "CC(C(=O)NCCn1nnn(-c2ccccc2)c1=O)n1nc2ccccc2n1 (stereo not drawn) [SR-01000373848]", "ASSAYED_SYSTEM": "parental HEK cells", "ENDPOINT": "Lipophilic Efficiency (logP)", "REPORTED": 1.47}

(I) Nc1c(Cl)c(Cl)nc(C(=O)OCC(=O)NCc2ccccc2)c1Cl [SR-01000073564]
(II) COc1ccccc1-c1nnc(NC(=O)Cc2ccc(C)cc2C)o1 [SR-01000915644]
input: Returns the identifier with the smallest measured Lipophilic Efficiency (logP) among I and II . Response format: the label of the selected entry.
output: II
(II: 1.25, I: 2.07)

----------
# System: parental HEK cells
# EXPERIMENT: HEK parental Agonist Counterscreen Assay (non-transfected cells)
# Assay type: cell-based
# PROTOCOL_CONDITIONS: HEK Agonist Activity section
# Source text: The high control for the agonist counterscreen was Forskolin not acetylcholine.
ENDPOINT: Lipophilic Efficiency (logD)

{"COMPOUND": "O=C(CN1C(=O)NC2(CCc3ccccc32)C1=O)Nc1cccc(Cl)c1 (centres unmarked) [SR-01000069699]", "Lipophilic Efficiency (logD)": 2.03}
{"COMPOUND": "O=C(CN1CCCc2ccccc21)NNC(=O)Nc1ccc(Cl)c(Cl)c1 [SR-01000029575]", "Lipophilic Efficiency (logD)": 1.09}
{"COMPOUND": "COc1cc(OC)cc(C(=O)NNC(=O)COc2cc(C)c(Cl)c(C)c2)c1 [SR-01000358286]", "Lipophilic Efficiency (logD)": 1.79}

(I) CC(=O)N1CCSc2cc(S(=O)(=O)NC3CCC(C)CC3)ccc21 (centres unmarked) [SR-01000141798]
(II) Cc1ccc(CC2CCC(CC(=O)CC3CCCCCCC3)C2=O)cc1 (centres unmarked) [SR-01000151470]
input: Please indicate which item has the smaller measured Lipophilic Efficiency (logD): I versus II Write down the label attached to your selection.
output: II
(II: 1.44, I: 2.66)

(A) C=C1CC(C)(c2ccc(OC)cc2)C(=C)C1CC(=O)CC1CCCCC1 (centres unmarked) [SR-01000918719]
(B) O=C(CCCOc1ccc(Cl)cc1Cl)NNC(=O)Cc1ccccc1 [SR-01000067982]
input: Between A and B , which one has the lower reported Lipophilic Efficiency (logD) value? Write down the label attached to your selection.
output: B
(B: 1.37, A: 3.17)

(1) Cc1ccc(CN2CCN(CC(=O)N3CC(C)CC(C)C3)C2=O)cc1 (centres unmarked) [SR-01000150389]
(2) CCSc1nc2sccn2c(=O)c1C(=O)NC(C)c1ccccc1 (centres unmarked) [SR-01000378352]
input: Please tell me which of the two, 1 or 2 , has the higher reported Lipophilic Efficiency (logD) value. Return value: the label identifying the chosen record.
output: 1
(1: 2.56, 2: 1.53)

meta.source: patent US20250099420A1
